Target: monkey DLL3 on CHO-K1-cyno DLL3 cells (cynomolgus monkey)
Sequence (chain, as listed by the source limits assumed): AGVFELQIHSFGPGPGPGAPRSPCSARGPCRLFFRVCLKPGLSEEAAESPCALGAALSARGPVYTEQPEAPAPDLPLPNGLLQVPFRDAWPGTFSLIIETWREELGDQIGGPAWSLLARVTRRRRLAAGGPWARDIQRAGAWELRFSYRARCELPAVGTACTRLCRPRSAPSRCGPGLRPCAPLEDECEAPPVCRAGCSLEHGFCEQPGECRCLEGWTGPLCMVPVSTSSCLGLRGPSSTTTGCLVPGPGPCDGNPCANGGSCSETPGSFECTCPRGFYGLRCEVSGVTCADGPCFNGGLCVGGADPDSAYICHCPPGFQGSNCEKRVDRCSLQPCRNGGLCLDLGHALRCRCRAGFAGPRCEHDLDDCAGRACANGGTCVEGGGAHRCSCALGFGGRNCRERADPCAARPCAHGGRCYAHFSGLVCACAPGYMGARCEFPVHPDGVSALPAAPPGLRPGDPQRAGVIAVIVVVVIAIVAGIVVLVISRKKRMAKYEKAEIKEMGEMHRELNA
Experiment: FACS, CHO-K1-cyno DLL3 cells, 0.00128 nM antibody
MFI overview
The reply must contain the numeric value and, after it, the unit.

Hab006VL1VH4-hFc (scFv, part only; not given: VL-VH linker and human IgG1 Fc, V domains shown, not shown: another chain or arm of the molecule; a dimerising Fc or GST; small tags and cut ends) VL: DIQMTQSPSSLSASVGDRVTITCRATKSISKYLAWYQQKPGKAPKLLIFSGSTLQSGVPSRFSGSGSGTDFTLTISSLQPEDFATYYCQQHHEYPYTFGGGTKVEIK VH: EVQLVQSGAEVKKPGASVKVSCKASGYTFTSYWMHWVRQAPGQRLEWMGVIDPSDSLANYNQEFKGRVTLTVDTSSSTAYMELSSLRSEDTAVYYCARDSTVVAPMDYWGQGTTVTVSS; 750 MFI

Supply MFI value. Item: Hab009VL3aVH1-hFc (scFv, part only; not given: VL-VH linker and human IgG1 Fc, V domains shown, not shown: another chain or arm of the molecule; a dimerising Fc or GST; small tags and cut ends) VL: DIVMTQSPLSLPVTPGEPASISCRASQTISDYLHWYLQKSHQSPQLLIKYASQSISGVPDRFSGSGSGTDFTLKISRVEAEDVGVYYCQQGHSFPLTFGQGTKLEIK VH: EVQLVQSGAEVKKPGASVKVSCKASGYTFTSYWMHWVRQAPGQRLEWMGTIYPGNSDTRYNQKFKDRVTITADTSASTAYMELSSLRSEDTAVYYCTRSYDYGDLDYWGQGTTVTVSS
1450 MFI

Give the reported value of MFI for this record: Hab015VL5VH6a-hFc (scFv, part only; not given: scFv linker and human IgG1 Fc, V domains shown, not shown: another chain or arm of the molecule; a dimerising Fc or GST; small tags and cut ends) VL: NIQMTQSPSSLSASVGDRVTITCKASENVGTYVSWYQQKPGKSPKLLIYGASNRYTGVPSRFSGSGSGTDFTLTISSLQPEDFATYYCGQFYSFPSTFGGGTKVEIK VH: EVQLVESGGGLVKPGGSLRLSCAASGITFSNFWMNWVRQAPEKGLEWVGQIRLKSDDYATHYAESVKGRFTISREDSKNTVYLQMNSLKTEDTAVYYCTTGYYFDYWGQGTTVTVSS
125 MFI

In one line, give reported MFI of the entry Hab015VL5VH1b-hFc (scFv, part only; not given: VL-VH linker and human IgG1 Fc, V domains shown, not shown: another chain or arm of the molecule; a dimerising Fc or GST; small tags and cut ends) VL: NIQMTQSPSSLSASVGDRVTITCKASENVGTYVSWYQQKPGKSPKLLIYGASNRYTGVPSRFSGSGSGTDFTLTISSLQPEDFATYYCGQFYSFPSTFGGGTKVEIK VH: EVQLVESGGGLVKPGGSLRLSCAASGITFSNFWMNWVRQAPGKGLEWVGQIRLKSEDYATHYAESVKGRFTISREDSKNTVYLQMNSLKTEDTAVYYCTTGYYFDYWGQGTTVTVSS .
140 MFI

Output measured MFI for this item: Hab009VL1aVH1-hFc (scFv, part only; not given: scFv linker and human IgG1 Fc, V domains shown, not shown: another chain or arm of the molecule; a dimerising Fc or GST; small tags and cut ends) VL: DIVMTQSPLSLPVTPGEPASISCRASQTISDYLHWYLQKPGQSPQLLIKYASQSISGVPDRFSGSGSGSDFTLKISRVEAEDVGVYYCQQGHSFPLTFGQGTKLEIK VH: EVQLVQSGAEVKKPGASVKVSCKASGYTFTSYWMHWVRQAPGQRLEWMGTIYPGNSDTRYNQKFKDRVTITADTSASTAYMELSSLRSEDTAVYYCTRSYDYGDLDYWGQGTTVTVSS
120 MFI
